Tested on: Escherichia coli
methodNotes: minimum inhibitory concentration (MIC)
assayConditions: isolate (source animal id): 116
parameterMeasured: minimum inhibitory concentration (µg/mL)
Please reply with the bare figure in µg/mL and do not write the unit itself.

CC[C@H]1OC(=O)C[C@@H](O)[C@H](C)[C@@H](O[C@@H]2O[C@H](C)[C@@H](O)[C@H](N(C)C)[C@H]2O)[C@@H](CCN2CCCCC2)C[C@@H](C)C(=O)/C=C/C(C)=C/[C@@H]1CN1CCCCC1 4

**Query** Determine its reported minimum inhibitory concentration: `CCN1CCN(c2cc3c(cc2F)c(=O)c(C(=O)O)cn3C2CC2)CC1`
**Result** 1

====

System: Mannheimia haemolytica
methodNotes: minimum inhibitory concentration (MIC)
assayConditions: isolate (source animal id): 300
parameterMeasured: minimum inhibitory concentration

CCCN1C[C@H](C)[C@@H](O)[C@](C)(O)[C@@H](CC)OC(=O)[C@H](C)[C@@H](O[C@H]2C[C@@](C)(OC)[C@@H](O)[C@H](C)O2)[C@H](C)[C@@H](O[C@@H]2O[C@H](C)C[C@H](N(C)C)[C@H]2O)[C@](C)(O)C[C@H]1C ≤ 1 µg/mL
CC1(C)S[C@@H]2[C@H](NC(=O)[C@H](N)c3ccccc3)C(=O)N2[C@H]1C(=O)O ≤ 0.25 µg/mL
CC[C@H]1OC(=O)C[C@@H](O)[C@H](C)[C@@H](O[C@@H]2O[C@H](C)[C@@H](O[C@H]3C[C@@](C)(O)[C@@H](O)[C@H](C)O3)[C@H](N(C)C)[C@H]2O)[C@@H](CC=O)C[C@@H](C)C(=O)/C=C/C(C)=C/[C@@H]1CO[C@@H]1O[C@H](C)[C@@H](O)[C@@H](OC)[C@H]1OC 32 µg/mL
NC[C@@H]1O[C@H](O[C@H]2[C@@H](O)[C@H](O[C@@H]3[C@@H](O)[C@H](N)C[C@H](N)[C@H]3O[C@H]3O[C@H](CN)[C@@H](O)[C@H](O)[C@H]3N)O[C@@H]2CO)[C@H](N)[C@@H](O)[C@@H]1O ≤ 4 µg/mL

Switching to the query record.
**Query** Determine its reported minimum inhibitory concentration: `COc1cc(NS(=O)(=O)c2ccc(N)cc2)nc(OC)n1`
**Result** ≤ 256 µg/mL

====

System: Histophilus somni
methodNotes: minimum inhibitory concentration (MIC)
assayConditions: isolate (source animal id): 283
The reader will find reported minimum inhibitory concentration values listed item by item below.

compound	parameterMeasured	obsValue
CN[C@@H]1[C@H](O)[C@H](NC)[C@H]2O[C@@]3(O)C(=O)C[C@@H](C)O[C@H]3O[C@@H]2[C@H]1O [Spectinomycin]	minimum inhibitory concentration	> 64 µg/mL
CC[C@H]1OC(=O)C[C@@H](O)[C@H](C)[C@@H](O[C@@H]2O[C@H](C)[C@@H](O)[C@H](N(C)C)[C@H]2O)[C@@H](CCN2CCCCC2)C[C@@H](C)C(=O)/C=C/C(C)=C/[C@@H]1CN1CCCCC1 [Tildipirosin]	minimum inhibitory concentration	2 µg/mL
CNC(C)C1CCC(N)C(OC2C(N)CC(N)C(OC3OCC(C)(O)C(NC)C3O)C2O)O1 (configuration not stated) [Gentamicin]	minimum inhibitory concentration	4 µg/mL

**Query** Determine its reported minimum inhibitory concentration: COc1cc(NS(=O)(=O)c2ccc(N)cc2)nc(OC)n1 [sulfadimethoxine]
**Result** ≤ 256 µg/mL

**Query** Determine its reported minimum inhibitory concentration: CN1C[C@@H]2C[C@H]1CN2c1cc2c(cc1F)c(=O)c(C(=O)O)cn2C1CC1 [Danofloxacin]
**Result** ≤ 0.12 µg/mL

**Query** Determine its reported minimum inhibitory concentration: CCN1CCN(c2cc3c(cc2F)c(=O)c(C(=O)O)cn3C2CC2)CC1 [Enrofloxacin]
**Result** ≤ 0.12 µg/mL

**Query** Determine its reported minimum inhibitory concentration: NC[C@@H]1O[C@H](O[C@H]2[C@@H](O)[C@H](O[C@@H]3[C@@H](O)[C@H](N)C[C@H](N)[C@H]3O[C@H]3O[C@H](CN)[C@@H](O)[C@H](O)[C@H]3N)O[C@@H]2CO)[C@H](N)[C@@H](O)[C@@H]1O [Neomycin]
**Result** > 32 µg/mL
